Reference source for all entries: ChEMBL document CHEMBL2331238

System: SMMC-7721
Test: Cytotoxicity against human SMMC7721 assessed as cell viability measured after 48 hrs by MTT assay
Type: functional, cell-based
Conditions: SMMC-7721, 48 h
measuredAttribute: IC50 (µM)
Give the value, in units of µM, as a plain number.

Which IC50 is reported for this compound? COC(=O)[C@]12Oc3cc4c(c(O)c3C(=O)C1=C(O)CC[C@@H]2O)[C@@H]1C=C[C@]2(C4)C(=C(O)c3c(O)cc(C)cc3[C@@H]2O)C1=O
2.87

Same read-out for COC(=O)[C@@]12Oc3c(c(O)cc4c3[C@@H]3C=C[C@]5(C4)C(=C(O)c4c(O)cc(C)cc4[C@@H]5O)C3=O)C(=O)C1=C(O)CC[C@@H]2O ?
15

Same read-out for COC(=O)[C@]1([C@@H]2CCC(=O)O2)CC(=O)c2c(cc3c(c2O)[C@@H]2C=C[C@]4(C3)C(=C(O)c3c(O)cc(C)cc3[C@@H]4O)C2=O)O1 ?
19.2

Same read-out for COC(=O)[C@@]12Oc3cc4c(c(O)c3C(=O)C1=C(O)CC[C@@H]2O)[C@@H]1C=C[C@@]2(C4)C(=O)c3cc(C)cc(O)c3C(O)=C2C1=O ?
8

Further cases:
Which IC50 is reported for this compound? COC(=O)[C@]1([C@@H]2CCC(=O)O2)CC(=O)c2c(cc3c(c2O)[C@@H]2C=C[C@@]4(C3)C(=O)c3cc(C)cc(O)c3C(O)=C4C2=O)O1
16.7

Same read-out for COC(=O)CC[C@H](O)[C@@]1(C(=O)OC)CC(=O)c2c(cc3c(c2O)[C@@H]2C=C[C@]4(C3)C(=C(O)c3c(O)cc(C)cc3[C@@H]4O)C2=O)O1 ?
16.8

Same read-out for COC(=O)[C@]12Oc3c(c(O)cc4c3[C@@H]3C=C[C@]5(C4)C(=C(O)c4c(O)cc(C)cc4[C@@H]5O)C3=O)C(=O)C1=C(O)CC[C@@H]2O ?
27.7

Same read-out for COC(=O)[C@]12Oc3cc4c(c(O)c3C(=O)C1=C(O)CC[C@@H]2O)[C@@H]1C=C[C@@]2(C4)C(=O)c3cc(C)cc(O)c3C(O)=C2C1=O ?
6.77
